Molecular target: P2XE (Dictyostelium discoideum, UniProt Q54JH4)
Construct: humanized cDNA (Genscript), full length, C-terminal EYMPME (EE) tag, pcDNA3.1, transient expression in HEK293 cells
Sequence (Q54JH4 1-388): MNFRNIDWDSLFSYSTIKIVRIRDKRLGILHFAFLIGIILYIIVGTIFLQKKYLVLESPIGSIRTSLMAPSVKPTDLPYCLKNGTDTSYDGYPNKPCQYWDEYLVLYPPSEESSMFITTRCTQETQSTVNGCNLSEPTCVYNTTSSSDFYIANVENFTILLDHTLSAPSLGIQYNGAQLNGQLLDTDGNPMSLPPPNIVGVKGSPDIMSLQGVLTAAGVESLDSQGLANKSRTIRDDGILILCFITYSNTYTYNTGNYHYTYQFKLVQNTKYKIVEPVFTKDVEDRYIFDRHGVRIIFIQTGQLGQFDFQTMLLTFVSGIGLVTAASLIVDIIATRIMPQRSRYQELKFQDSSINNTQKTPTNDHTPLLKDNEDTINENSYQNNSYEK
Test: whole-cell patch clamp, ATP-evoked current, HEK293 cells
Measured Quantity: EC50

Enquiry: Requested field: EC50. Item: Nc1ncnc2c1ncn2[C@@H]1O[C@H](COP(=O)(O)OP(=O)(O)OP(=O)(O)O)[C@@H](O)[C@H]1O [ATP]
Return: ~300 µM

---

Biological target: P2XA (Dictyostelium discoideum, UniProt Q86JM7)
Construct: humanized cDNA, full length, C-terminal EYMPME (EE) tag, pcDNA3.1, transient expression in HEK293 cells
Sequence (Q86JM7 1-378): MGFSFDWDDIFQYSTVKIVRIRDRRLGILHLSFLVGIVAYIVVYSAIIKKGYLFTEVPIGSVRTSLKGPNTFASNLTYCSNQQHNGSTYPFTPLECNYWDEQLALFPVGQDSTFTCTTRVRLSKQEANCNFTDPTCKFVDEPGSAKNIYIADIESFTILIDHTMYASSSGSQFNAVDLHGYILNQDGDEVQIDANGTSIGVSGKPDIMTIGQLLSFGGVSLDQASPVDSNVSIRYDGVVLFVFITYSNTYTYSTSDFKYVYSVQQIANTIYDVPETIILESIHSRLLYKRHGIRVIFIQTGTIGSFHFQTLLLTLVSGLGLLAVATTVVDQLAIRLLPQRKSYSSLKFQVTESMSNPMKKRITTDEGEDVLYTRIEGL
Assay: whole-cell patch clamp, ATP-evoked current, HEK293 cells
Measured Quantity: EC50 (µM)
Respond with the bare value in µM.

Enquiry: Requested field: EC50. Item: `Nc1ncnc2c1ncn2[C@@H]1O[C@H](COP(=O)(O)OP(=O)(O)OP(=O)(O)O)[C@@H](O)[C@H]1O`
Return: 158

---

Target: P2XB (Dictyostelium discoideum)
Construct: humanized cDNA (Genscript), full length, C-terminal EYMPME (EE) tag, pcDNA3.1, transient expression in HEK293 cells
Sequence (Q553Y1 1-369): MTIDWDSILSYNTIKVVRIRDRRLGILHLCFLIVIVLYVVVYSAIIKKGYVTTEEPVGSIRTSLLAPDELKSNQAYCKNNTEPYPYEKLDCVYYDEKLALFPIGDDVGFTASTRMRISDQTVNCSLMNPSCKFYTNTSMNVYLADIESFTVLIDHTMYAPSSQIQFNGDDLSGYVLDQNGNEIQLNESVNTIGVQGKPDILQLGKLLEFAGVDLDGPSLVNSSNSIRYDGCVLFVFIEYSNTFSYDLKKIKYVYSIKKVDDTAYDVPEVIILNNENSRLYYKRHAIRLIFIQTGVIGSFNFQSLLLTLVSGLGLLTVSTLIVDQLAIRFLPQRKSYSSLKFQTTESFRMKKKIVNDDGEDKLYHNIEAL
Experiment: whole-cell patch clamp, ATP-evoked current, HEK293 cells
pEC50: −log10 of the molar value.
Measured Quantity: pEC50

Enquiry: Requested field: pEC50. Item: `Nc1ncnc2c1ncn2[C@@H]1O[C@H](COP(=O)(O)OP(=O)(O)OP(=O)(O)O)[C@@H](O)[C@H]1O`
Return: ~2.52
